From: patent US6613747B2

# System: E. faecalis ATCC29212
# Experiment description: MIC, microdilution broth method (NCCLS)
# Format: cell-based
# Condition label: C: E. faecalis ATCC29212, 35° C., 16-20 hours
Property name: MIC (µg/mL)
Numbers only here, please. The scale is µg/mL.

Solved entries:
- Chemical smiles: "CC[C@H]1OC(=O)[C@H](C)C(=O)[C@H](C)[C@@H](O[C@@H]2O[C@H](C)C[C@H](N(C)C)[C@H]2O)[C@](C)(OC(=O)NCc2ccc(-c3nccc(C)n3)cc2)C[C@@H](C)C(=O)[C@H](C)[C@H]2NC(=O)O[C@@]21C"
  MIC / µg/mL: 0.12
- Chemical smiles: "CC[C@H]1OC(=O)[C@H](C)C(=O)[C@H](C)[C@@H](O[C@@H]2O[C@H](C)C[C@H](N(C)C)[C@H]2O)[C@](C)(OC(=O)NC/C=C/c2cncc3ccccc23)C[C@@H](C)C(=O)[C@H](C)[C@H]2NC(=O)O[C@@]21C"
  MIC / µg/mL: 0.12
- Chemical smiles: "CC[C@H]1OC(=O)[C@H](C)C(=O)[C@H](C)[C@@H](O[C@@H]2O[C@H](C)C[C@H](N(C)C)[C@H]2O)[C@](C)(OC(=O)NC/C=C/c2ccc(-n3cc(C)cn3)cc2)C[C@@H](C)C(=O)[C@H](C)[C@H]2NC(=O)O[C@@]21C"
  MIC / µg/mL: 0.25
- Chemical smiles: "CC[C@H]1OC(=O)[C@H](C)C(=O)[C@H](C)[C@@H](O[C@@H]2O[C@H](C)C[C@H](N(C)C)[C@H]2O)[C@](C)(OC(=O)NCc2ccc(Br)cc2)C[C@@H](C)C(=O)[C@H](C)[C@H]2NC(=O)O[C@@]21C"
  MIC / µg/mL: 0.25
- Chemical smiles: "CC[C@H]1OC(=O)[C@H](C)C(=O)[C@H](C)[C@@H](O[C@@H]2O[C@H](C)C[C@H](N(C)C)[C@H]2O)[C@](C)(OC(=O)NCCNC(=O)c2cnc3ccccc3c2)C[C@@H](C)C(=O)[C@H](C)[C@H]2NC(=O)O[C@@]21C"
  MIC / µg/mL: 1

Ask | For `CC[C@H]1OC(=O)[C@H](C)C(=O)[C@H](C)[C@@H](O[C@@H]2O[C@H](C)C[C@H](N(C)C)[C@H]2O)[C@](C)(OC(=O)NCc2ccc(-n3cccn3)cc2F)C[C@@H](C)C(=O)[C@H](C)[C@H]2NC(=O)O[C@@]21C` , what is its reported MIC?
Reply | 0.06

Ask | Now consider `CC[C@H]1OC(=O)[C@H](C)C(=O)[C@H](C)[C@@H](O[C@@H]2O[C@H](C)C[C@H](N(C)C)[C@H]2O)[C@](C)(OC(=O)NCCN(C)Cc2cccnc2)C[C@@H](C)C(=O)[C@H](C)[C@H]2NC(=O)O[C@@]21C` .
Reply | 1

Ask | What do you have for `CC[C@H]1OC(=O)[C@H](C)C(=O)[C@H](C)[C@@H](O[C@@H]2O[C@H](C)C[C@H](N(C)C)[C@H]2O)[C@](C)(OC(=O)NCc2ccc(-n3cncn3)c(F)c2)C[C@@H](C)C(=O)[C@H](C)[C@H]2NC(=O)O[C@@]21C` ?
Reply | 0.12

---

# Tested on: E. coli OC2605
# Experiment description: MIC, microdilution broth method (NCCLS)
# Type: cell-based
# Condition label: A: E. coli OC2605, 35° C., 16-20 hours
Property name: MIC

- Molecule: "CC[C@H]1OC(=O)[C@H](C)C(=O)[C@H](C)[C@@H](O[C@@H]2O[C@H](C)C[C@H](N(C)C)[C@H]2O)[C@](C)(OC(=O)NCCCc2ccc(-c3ncccn3)cc2)C[C@@H](C)C(=O)[C@H](C)[C@H]2NC(=O)O[C@@]21C"
  Property name: "MIC"
  Reported value: ">16 µg/mL"
- Molecule: "CC[C@H]1OC(=O)[C@H](C)C(=O)[C@H](C)[C@@H](O[C@@H]2O[C@H](C)C[C@H](N(C)C)[C@H]2O)[C@](C)(OC(=O)NCCN)C[C@@H](C)C(=O)[C@H](C)[C@H]2NC(=O)O[C@@]21C"
  Property name: "MIC"
  Reported value: ">16 µg/mL"

Now let's try a different one.
Ask | Need MIC, item CC[C@H]1OC(=O)[C@H](C)C(=O)[C@H](C)[C@@H](O[C@@H]2O[C@H](C)C[C@H](N(C)C)[C@H]2O)[C@](C)(OC(=O)NCC2CC(c3ccc(-c4ncccn4)cc3)C2)C[C@@H](C)C(=O)[C@H](C)[C@H]2NC(=O)O[C@@]21C (stereo partly drawn)
Reply | >16 µg/mL

---

# Tested on: H. influenzae ATCC49247
# Experiment description: MIC, microdilution broth method (NCCLS)
# Type: cell-based
# Condition label: E: H. influenzae ATCC49247, 35° C., 16-20 hours
MIC for assorted compounds
Express your answer in µg/mL, writing the number without its unit.

For orientation, consider the following solved cases.
- Compound: "CC[C@H]1OC(=O)[C@H](C)C(=O)[C@H](C)[C@@H](O[C@@H]2O[C@H](C)C[C@H](N(C)C)[C@H]2O)[C@](C)(OC(=O)NCc2ccc(-n3cccn3)cc2F)C[C@@H](C)C(=O)[C@H](C)[C@H]2NC(=O)O[C@@]21C [Compound 73]"
  MIC [µg/mL]: 2
- Compound: "CC[C@H]1OC(=O)[C@H](C)C(=O)[C@H](C)[C@@H](O[C@@H]2O[C@H](C)C[C@H](N(C)C)[C@H]2O)[C@](C)(OC(=O)NCCCc2ccnc3ccccc23)C[C@@H](C)C(=O)[C@H](C)[C@H]2NC(=O)O[C@@]21C [Compound 25]"
  MIC [µg/mL]: 4
- Compound: "CC[C@H]1OC(=O)[C@H](C)C(=O)[C@H](C)[C@@H](O[C@@H]2O[C@H](C)C[C@H](N(C)C)[C@H]2O)[C@](C)(OC(=O)NC/C=C/c2ccc(-c3ncccn3)cc2F)C[C@@H](C)C(=O)[C@H](C)[C@H]2NC(=O)O[C@@]21C [Compound 88]"
  MIC [µg/mL]: 8

# ---- query compound ----
Ask | Using the record for CCC1OC(=O)C(C)(F)C(=O)C(C)C(OC2OC(C)CC(N(C)C)C2O)C(C)(OC(=O)NCC=Cc2ccc(-c3ncccn3)cc2)CC(C)C(=O)C(C)C2NC(=O)OC12C (stereo not drawn) [Compound 75] , report its MIC.
Reply | 4

---

# Test system: H. influenzae ATCC49247
# Experiment description: MIC, microdilution broth method (NCCLS)
# Type: cell-based
# Condition label: E: H. influenzae ATCC49247, 35° C., 16-20 hours
Property name: MIC (µg/mL)
Just the number in µg/mL, nothing appended.

// below: answered molecules
- Chemical smiles: "CC[C@H]1OC(=O)[C@H](C)C(=O)[C@H](C)[C@@H](O[C@@H]2O[C@H](C)C[C@H](N(C)C)[C@H]2O)[C@](C)(OC(=O)NC/C=C/c2ccncc2)C[C@@H](C)C(=O)[C@H](C)[C@H]2NC(=O)O[C@@]21C"
  MIC / µg/mL: 2
- Chemical smiles: "CC[C@H]1OC(=O)[C@H](C)C(=O)[C@H](C)[C@@H](O[C@@H]2O[C@H](C)C[C@H](N(C)C)[C@H]2O)[C@](C)(OC(=O)NCc2ccc(-c3cnccn3)cc2)C[C@@H](C)C(=O)[C@H](C)[C@H]2NC(=O)O[C@@]21C"
  MIC / µg/mL: 2
- Chemical smiles: "CC[C@H]1OC(=O)[C@H](C)C(=O)[C@H](C)[C@@H](O[C@@H]2O[C@H](C)C[C@H](N(C)C)[C@H]2O)[C@](C)(OC(=O)NCC=C(c2ccccc2)c2ccccc2)C[C@@H](C)C(=O)[C@H](C)[C@H]2NC(=O)O[C@@]21C"
  MIC / µg/mL: 2
- Chemical smiles: "CC[C@H]1OC(=O)[C@H](C)C(=O)[C@H](C)[C@@H](O[C@@H]2O[C@H](C)C[C@H](N(C)C)[C@H]2O)[C@](C)(OC(=O)NCCCc2ccccc2)C[C@@H](C)C(=O)[C@H](C)[C@H]2NC(=O)O[C@@]21C"
  MIC / µg/mL: 2
- Chemical smiles: "CC[C@H]1OC(=O)[C@H](C)C(=O)[C@H](C)[C@@H](O[C@@H]2O[C@H](C)C[C@H](N(C)C)[C@H]2O)[C@](C)(OC(=O)NCc2ccc(-c3ncccn3)cc2)C[C@@H](C)C(=O)[C@H](C)[C@H]2NC(=O)O[C@@]21C"
  MIC / µg/mL: 2

Lab note: next molecule to report on.
Ask | Entry `CC[C@H]1OC(=O)[C@H](C)C(=O)[C@H](C)[C@@H](O[C@@H]2O[C@H](C)C[C@H](N(C)C)[C@H]2O)[C@](C)(OC(=O)NCc2cnn(-c3ccccc3)c2)C[C@@H](C)C(=O)[C@H](C)[C@H]2NC(=O)O[C@@]21C` : reported MIC = ?
Reply | 2
